Consider the following compounds and their measured IC50 readings.
system name: BACE1 (Homo sapiens)
Sequence (P56817 46-501, species assumed): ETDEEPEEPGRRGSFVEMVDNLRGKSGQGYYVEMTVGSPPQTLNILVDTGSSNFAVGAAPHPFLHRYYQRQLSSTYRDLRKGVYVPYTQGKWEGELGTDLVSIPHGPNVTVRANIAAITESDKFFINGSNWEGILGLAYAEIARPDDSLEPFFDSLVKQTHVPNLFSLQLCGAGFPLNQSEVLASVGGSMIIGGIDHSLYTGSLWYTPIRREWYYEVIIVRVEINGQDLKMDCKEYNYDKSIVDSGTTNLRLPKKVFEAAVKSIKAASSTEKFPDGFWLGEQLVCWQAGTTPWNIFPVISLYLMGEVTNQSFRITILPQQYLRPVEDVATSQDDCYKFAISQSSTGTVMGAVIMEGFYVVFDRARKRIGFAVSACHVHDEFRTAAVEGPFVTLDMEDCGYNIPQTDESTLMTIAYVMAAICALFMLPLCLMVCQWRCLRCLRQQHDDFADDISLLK
measurement protocol: In Vitro BACE Cell-based Assay (HEK cell assay): Aβ40 in conditioned medium of cells stably expressing Amyloid Precursor Protein, sandwich ELISA
assay context: HEK cell-based assay, Aβ40 in conditioned medium, IC50 class symbols; read-out: HEK cell assay

Here is how some compounds turned out for IC50.
CC1(COc2cnc3c(c2)[C@]2(COC(N)=N2)c2cc(-c4cc(F)ccc4F)ccc2O3)COC1 | < 100 nM
NC1=N[C@@]2(CO1)c1cc(-c3cccnc3F)ccc1Oc1ccc(C3=CCOCC3)nc12 | < 100 nM

Let us move to another entry and its IC50.
I have this compound here, COc1ccc2c(c1)[C@@]1(COC(N)=N1)c1cc(C3=CCOCC3)cc(F)c1O2 , and I need its recorded IC50.
1000 to 5000 nM
